System tested: T1, human CD19 on CHO cells (human, UniProt P15391 20-556)
T1 construct: whole, on cells; also called Cells Expressing Human CD19; CHO cells overexpressing the antigen
T1 sequence (looked up): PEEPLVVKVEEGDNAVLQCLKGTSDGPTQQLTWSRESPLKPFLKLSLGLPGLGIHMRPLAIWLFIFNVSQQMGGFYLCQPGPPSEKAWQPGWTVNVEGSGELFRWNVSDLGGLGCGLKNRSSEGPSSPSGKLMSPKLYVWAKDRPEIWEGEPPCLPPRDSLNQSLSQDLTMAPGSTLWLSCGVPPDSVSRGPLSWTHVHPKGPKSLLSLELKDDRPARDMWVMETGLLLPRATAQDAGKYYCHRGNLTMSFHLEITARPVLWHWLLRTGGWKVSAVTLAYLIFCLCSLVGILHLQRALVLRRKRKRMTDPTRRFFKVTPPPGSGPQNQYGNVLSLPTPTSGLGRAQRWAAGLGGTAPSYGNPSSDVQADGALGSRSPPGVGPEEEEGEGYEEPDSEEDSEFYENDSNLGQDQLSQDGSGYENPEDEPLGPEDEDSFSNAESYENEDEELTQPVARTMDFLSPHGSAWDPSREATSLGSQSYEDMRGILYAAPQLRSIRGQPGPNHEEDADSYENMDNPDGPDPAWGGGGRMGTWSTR
Assay name: flow cytometry, CHO cells, 100 nM IgG
Friendly reminder: Binding to Cells Expressing Human CD19 (FOB) below 300 FOB is fulfilled, at or above is not fulfilled.

For orientation, consider the following solved cases.
{"columns": ["Binder", "Discrete label"],
 "data": [
  ["CNG-CD19-108 (antibody, V domains shown, tested as IgG produced in yeast) VH: QVQLVQSGAEVKKPGASVKVSCKASGYDFTDYIVHWVRQAPGQGLEWMGYINPYNDGSKYTEKFQGRVTMTSDTSISTAYMELSRLRSDDTAVYYCARGTYYYGPQLFDYWGQGTTVTVSS VL: DIVMTQTPLSLSVTPGQPASISCKSSQSLETVTGTTYLNWYLQKPGQSPQLLIYRVSKRFSGVPDRFSGSGSGTDFTLKISRVEAEDVGVYYCLQLLEDPPTFGQGTKLEIK", "not fulfilled"],
  ["CNG-CD19-106 (antibody, V domains shown, tested as IgG produced in yeast) VH: QVQLVQSGAEVKKPGASVKVSCKASGYDFTDYIMHWVRQAPGQGLEWMGYINPYNDGSEYTEKFQGRVTMTSDTSISTAYMELSRLRSDDTAVYYCARGTYYYGPQLFDYWGQGTTVTVSS VL: DIVMTQTPLSLSVTPGQPASISCKSSQSLETATGTTYLNWYLQKPGQSPQLLIYRVSRRFSGVPDRFSGSGSGTDFTLKISRVEAEDVGVYYCLQLLEDPYTFGQGTKLEIK", "not fulfilled"],
  ["CNG-CD19-103 (antibody, V domains shown, tested as IgG produced in yeast) VH: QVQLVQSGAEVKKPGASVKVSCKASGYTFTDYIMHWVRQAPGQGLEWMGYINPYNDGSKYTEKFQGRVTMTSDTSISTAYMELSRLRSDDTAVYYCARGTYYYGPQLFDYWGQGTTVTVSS VL: DIVMTQTPLSLSVTPGQPASISCKSSQSLETATGTTYLNWYLQKPGQSPQLLIYRVSRRFSGVPDRFSGSGSGTDFTLKISRVEAEDVGVYYCLQLLEDPYSFGQGTKLEIK", "fulfilled"],
  ["CNG-CD19-104 (antibody, V domains shown, tested as IgG produced in yeast) VH: QVQLVQSGAEVKKPGASVKVSCKASGYDFTDYIVHWVRQAPGQGLEWMGYINPYNDGSKYTEKFQGRVTMTSDTSISTAYMELSRLRSDDTAVYYCARGTYYYGPELFDYWGQGTTVTVSS VL: DIVMTQTPLSLSVTPGQPASISCKSGQSLETSTGTTYLNWYLQKPGQSPQLLIYRVSRRFSGVPDRFSGSGSGTDFTLKISRVEAEDVGVYYCLQLLEDPYTFGQGTKLEIK", "not fulfilled"]
]}

# ---- query binder ----
Hi there! Is Binding to Cells Expressing Human CD19 (FOB) for CNG-CD19-701 (antibody, V domains shown, tested as IgG produced in yeast) VH: QVQLQESGPGLVKPSQTLSLTCTVSGGSISTSTMGVGWIRQHPGKGLEWIGFIWWDDDKRYNPNLKSRVTMSVDTSKNQFSLKLSSVTAADTAVYYCARMELWSYYFDYWGQGTLVTVSS VL: EIVLTQSPATLSLSPGERATLSCSASSSVGYMHWYQQKPGQAPRLLIYDTSKLASGIPARFSGSGSGTDFTLTISSLEPEDFAVYYCFQGSVYPFTFGQGTKLEIK below 300 FOB, do you know?
fulfilled

Reference source for all entries: patent US20230037815A1
